binders and their reported Kd
# measured-on: T1, HER-3 (human, on cells) (human, UniProt P21860 20-1342)
# T1 construct: whole, on cells; also called ErbB3; HER-3+ cell lines
# assay-overview: indirect FACS Scatchard analysis on cells
Entry rule: numbers only, all in nM.

Known results for binders:
- binder: "U1-7 (antibody, V domains shown) VH: QVQLQESGPGLVKPSQTLSLTCTVSGGSISSGDYYWSWIRQHPGKGLEWIGYIYYSGSTYYNPSLKSRVTISVDTSKNQFSLKLSSVTAADTAVYYCARADYDFWSGYFDYWGQGTLVTVSS VL: DFQMTQSPSSLSASVGDRVTITCRASQDIRNDLGWYRQKPGKAPKRLIYAASSLQSGVPSRFSGSGSGTEFTLTISSLQPEDFATYYCLQHNSYPWTFGQGTKVEIK"
  experimental-endpoint: "Kd"
  recorded-value: 0.02
- binder: "U1-41 (antibody, V domains shown) VH: QVQLQESGPGLVKPSQTLSLTCTVSGGSISSGGYYWSWIRQHPGKGLEWIGYIYYSGSTYYNPSLKSRVTISVDTSKNQFSLKLSSVTAADTAVYFCARDRELEGYSNYYGVDVWGQGTTVTVS VL: DIQMTQSPSSLSASVGDRVTITCRASQAISNYLNWYQQKPGKAPKLLIYAASSLQSGVPSRFSGSGSGTDFTLTISSLQPEDFATYYCQQNNSLPITFGQGTRLEIK"
  experimental-endpoint: "Kd"
  recorded-value: 0.18

Recorded Kd of U1-24 (antibody, V domains shown) VH: QVQLQESGPGLVKPSQTLSLTCTVSGGSISSGDYYWSWIRQHPGKGLEWIGYIYYSGSTYYNPSLKSRVTISVDTSKNQFSLKLSSVTAADTAVYYCARADYDFWNGYFDYWGQGTLVTVSS VL: DIQMTQSPSSLSASVGDRVTITCRASQGIRNDLGWYQQKPGKAPKRLIYAASSLQSGVPSRFSGSGSGTEFTLTISSLQPEDFATYYCLQHNNYPWTFGQGTKVEIK , please.
0.06

The reported numbers originate from patent US20110229406A1.
